B1: TRIM63 (parent)
chain: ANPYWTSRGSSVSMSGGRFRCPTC

variants of: B1; experiment: protein stability index of a GFP-peptide fusion (GPS, HEK-293T) (PSI 1-6); higher = more stable; conditions: c terminus: a fixed tail appended;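 further: lentivirally expressed fusions sorted by FACS into six bins by GFP to DsRed ratio, PSI derived from sequencing read proportions per bin multiplied by bin number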
protein stability index for assorted variants

# VARIANT NOTATION, protein stability index
rows = [
    ("R8K", 1.95),
    ("G17C", 1.98),
    ("V12H", 1.98),
    ("C24R", 4.13),
    ("F19S", 3.07),
    ("C21N", 2.77),
    ("S7T", 1.58),
    ("R20Y", 1.96),
    ("C21W", 1.71),
    ("S13Y", 2.18),
    ("T23D", 1.71),
    ("N2F", 1.6),
    ("A1K", 2.1),
    ("S13R", 1.52),
    ("R18I", 1.37),
    ("S13V", 1.89),
    ("R20L", 1.51),
    ("P22H", 2.39),
    ("R8E", 3.19),
    ("G16Y", 2.24),
    ("G17T", 1.17),
    ("N2P", 1.76),
    ("S15C", 2.02),
    ("S11L", 1.1),
    ("C21Y", 2.15),
    ("G9M", 1.39),
    ("W5M", 2.16),
    ("T23V", 1.34),
    ("T6K", 1.56),
    ("R20D", 2.79),
    ("G17L", 1.81),
    ("R8T", 1.8),
    ("F19P", 2.25),
    ("G17I", 2.27),
    ("C21V", 1.9),
    ("G9R", 2.15),
    ("Y4T", 2.17),
    ("T23M", 2.44),
    ("R18D", 2.16),
    ("T6I", 1.84),
    ("P3S", 1.36),
    ("M14H", 2.21),
    ("T23L", 2.58),
    ("R20I", 1.91),
    ("G16Q", 1.7),
    ("G17D", 1.43),
    ("C21E", 3.46),
    ("W5P", 2.44),
    ("R18P", 1.65),
    ("F19A", 2.04),
    ("T6D", 1.83),
    ("S10Q", 2.83),
    ("W5L", 1.73),
    ("S15E", 2.1),
    ("G9K", 1.98),
    ("S13C", 2.02),
    ("G9I", 1.39),
    ("S10T", 2.24),
    ("T23K", 3.23),
    ("T23S", 2.52),
    ("S10E", 1.76),
    ("G16V", 1.3),
    ("A1R", 2.08),
    ("A1V", 2.21),
]
